# target_entity: P2X7 receptor (Homo sapiens (Human))
# experimental_protocol: P2X7 FLIPR assay (BzATP-stimulated calcium fluorescence, antagonist IC50)
# Type: cell-based
# study_conditions: listed as (−)2-chloro-N-[3-cyclopropyl-2-[6-(trifluoromethyl)-3-pyridyl]propyl]benzamide
# Protocol: This example illustrates representative assays for use in evaluating the test compounds for antagonist activity. Compounds of the present invention were tested in vitro for their ability to act as antagonists to the P2X7receptor. […] Cells were plated to cell density of approximately 15,000 cells/well in 384-well assay plates (50 μl/well) with 1.5% low serum media (DMEM, 1.5% FBS, 1% L-glut (2 mM), 10 mM HUES, 1% P/S). Cells were plated 24 hours prior to assay. […]
value_kind: pIC50
Please express pIC50 as -log10 of the molar concentration.

Query string: Requested field: pIC50. Item: O=C(NCC(CC1CC1)c1ccc(C(F)(F)F)nc1)c1ccccc1Cl (single isomer, unassigned; (-))
Result string: 8.64

###

pIC50: recorded values
# target_entity: P2X7 receptor (Homo sapiens (Human), UniProt Q99572)
# Sequence (Q99572 whole entry): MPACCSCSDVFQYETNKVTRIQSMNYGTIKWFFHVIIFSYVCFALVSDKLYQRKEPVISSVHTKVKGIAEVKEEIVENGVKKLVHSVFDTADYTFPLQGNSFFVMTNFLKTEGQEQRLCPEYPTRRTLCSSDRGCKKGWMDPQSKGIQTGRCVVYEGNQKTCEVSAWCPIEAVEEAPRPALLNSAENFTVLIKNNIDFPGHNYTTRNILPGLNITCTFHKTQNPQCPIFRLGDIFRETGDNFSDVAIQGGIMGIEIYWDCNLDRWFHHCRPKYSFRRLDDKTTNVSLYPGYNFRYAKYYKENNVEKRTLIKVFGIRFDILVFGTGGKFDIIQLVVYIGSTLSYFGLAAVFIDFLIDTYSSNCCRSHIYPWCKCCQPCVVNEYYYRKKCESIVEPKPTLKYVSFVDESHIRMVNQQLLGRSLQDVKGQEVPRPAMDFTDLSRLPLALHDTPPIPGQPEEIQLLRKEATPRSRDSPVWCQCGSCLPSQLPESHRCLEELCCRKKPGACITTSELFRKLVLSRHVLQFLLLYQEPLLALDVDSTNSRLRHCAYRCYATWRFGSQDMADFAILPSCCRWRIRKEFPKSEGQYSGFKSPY
# experimental_protocol: P2X7 FLIPR assay (BzATP-stimulated calcium fluorescence, antagonist IC50)
# Format: cell-based
Please express pIC50 as -log10 of the molar concentration.

The cases that follow already have their pIC50 on record.
>>> quantitative_readout("O=C(NCC(c1ccc(F)cc1)c1cnc(C(F)(F)F)nc1)c1c(F)cccc1Cl (single isomer, unassigned; (-)) [(−)2-chloro-6-fluoro-N-[2-(4-fluorophenyl)-2-[2-(trifluorome]")
8.59
>>> quantitative_readout("COc1cccc(C(=O)NCC2(c3ccc(F)nc3)CCC(F)(F)CC2)c1F")
7.00
>>> quantitative_readout("COc1cccc(C(=O)NCC2(c3ccc(C(F)(F)F)nc3)CCC(F)(F)CC2)c1Cl")
8.15
>>> quantitative_readout("Cc1cn(C2(CNC(=O)c3cccc(Cl)c3Cl)CCC(F)(F)CC2)cn1")
7.05
>>> quantitative_readout("CS(=O)(=O)c1ccc(Cl)c(C(=O)NCC(CC2CC2)c2ccc(C(F)(F)F)nc2)c1 (single isomer, unassigned; (+)) [(+)2-chloro-N-[3-cyclopropyl-2-[6-(trifluoromethyl)-3-pyridy]")
6.25
>>> quantitative_readout("O=C(NCC1(c2ccc(Cl)cc2)CCOCC1)c1c(Cl)cccc1Cl")
6.44

Now turn to the next molecule.
Query string: For the record O=C(NCC(CC1CC1)c1cnc(C(F)F)nc1)c1cccc(Cl)c1Cl (single isomer, unassigned; (-)) [(−)2,3-dichloro-N-[3-cyclopropyl-2-[2-(difluoromethyl)pyrimi] , what value of pIC50 is listed for P2X7 receptor (Homo sapiens (Human), UniProt Q99572)?
Result string: 8.72

###

# target_entity: P2X7 receptor (Homo sapiens (Human))
# experimental_protocol: P2X7 FLIPR assay (BzATP-stimulated calcium fluorescence, antagonist IC50)
# Assay type: cell-based
Lab note: cut-off is 40 nM. Strictly less in IC50 is rule met. Exactly 40 nM or more is rule not met.

Solved entries:
>>> label("COc1cccc(C(=O)NCC(CC2CC2)c2ccc(C(F)(F)F)nc2)c1Cl (single isomer, unassigned; (-)) [(−)2-chloro-N-[3-cyclopropyl-2-[6-(trifluoromethyl)-3-pyridy]")
"rule met"
>>> label("O=C(NCC(c1cnc(C(F)(F)F)nc1)C1CCC(F)(F)CC1)c1cccc(F)c1Cl (single isomer, unassigned; (+)) [(+)2-chloro-N-[2-(4,4-difluorocyclohexyl)-2-[2-(trifluoromet]")
"rule not met"
>>> label("O=C(NCC(CC1(C(F)(F)F)CC1)c1ccc(C(F)(F)F)nc1)c1cccc(F)c1Cl (single isomer, unassigned; (-)) [(−)2-chloro-3-fluoro-N-[3-[1-(trifluoromethyl)cyclopropyl]-2]")
"rule met"
>>> label("O=C(NCC(CC1CC1)c1ccc(C(F)F)nc1)c1cccc(F)c1Cl (single isomer, unassigned; (+)) [(+)2-chloro-N-[3-cyclopropyl-2-[6-(difluoromethyl)-3-pyridyl]")
"rule not met"
>>> label("O=C(NCC(CC1CC1)c1ccc(C(F)(F)F)nc1)c1c(F)cccc1Cl (single isomer, unassigned; (+)) [(+)2-chloro-N-[3-cyclopropyl-2-[6-(trifluoromethyl)-3-pyridy]")
"rule not met"

Query string: Given the entry COc1ccc(Cl)c(C(=O)NCC2(c3ccc(F)nc3)CCC(F)(F)CC2)c1 , would its reported IC50 be below 40 nM?
Result string: rule met

Query string: Given the entry O=C(NC[C@H](c1cnc(C(F)(F)F)nc1)C1CCOCC1)c1cccc(Cl)c1Cl (single isomer, unassigned) , would its reported IC50 be below 40 nM?
Result string: rule met

Query string: Given the entry Cc1ncc(C(CNC(=O)c2cccc(Cl)c2Cl)C2CCOCC2)cn1 (single isomer, unassigned; (-)) [(−)2,3-dichloro-N-[2-(2-methylpyrimidin-5-yl)-2-tetrahydropy] , would its reported IC50 be below 40 nM?
Result string: rule not met

Query string: Given the entry O=C(NCC(c1ccc(F)cc1)c1cnc(C(F)(F)F)nc1)c1ccccc1Cl (single isomer, unassigned; (+)) [(+)2-chloro-N-[2-(4-fluorophenyl)-2-[2-(trifluoromethyl)pyri] , would its reported IC50 be below 40 nM?
Result string: rule met

Query string: Given the entry O=C(NCC(c1ccc(F)cc1)c1ccc(C(F)(F)F)nc1)c1cccc(F)c1Cl (single isomer, unassigned; (-)) [(−)2-chloro-3-fluoro-N-[2-(4-fluorophenyl)-2-[6-(trifluorome] , would its reported IC50 be below 40 nM?
Result string: rule met

###

# target_entity: UniProt:Q99572
# experimental_protocol: P2X7 FLIPR assay (BzATP-stimulated calcium fluorescence, antagonist IC50)
# Assay type: cell-based
# Description: This example illustrates representative assays for use in evaluating the test compounds for antagonist activity. Compounds of the present invention were tested in vitro for their ability to act as antagonists to the P2X7receptor. […] Cells were plated to cell density of approximately 15,000 cells/well in 384-well assay plates (50 μl/well) with 1.5% low serum media (DMEM, 1.5% FBS, 1% L-glut (2 mM), 10 mM HUES, 1% P/S). Cells were plated 24 hours prior to assay. […]
value_kind: pIC50
Please express pIC50 as -log10 of the molar concentration.

The cases that follow already have their pIC50 on record.
>>> quantitative_readout("O=C(NCC1(c2ccc(Cl)cc2)CCOCC1)c1ccccc1C(F)(F)F")
5.92
>>> quantitative_readout("O=C(NCC(CC1CC1)c1ccc(C(F)(F)F)nc1)c1c(F)cccc1Cl (single isomer, unassigned; (-)) [(−)2-chloro-N-[3-cyclopropyl-2-[6-(trifluoromethyl)-3-pyridy]")
8.68
>>> quantitative_readout("O=C(NCC(CC1CC1)c1ccc(C(F)(F)F)nc1)c1cccc(Cl)c1F (stereo not drawn)")
6.18
>>> quantitative_readout("O=C(NCC(CC1(F)CC1)c1ccc(C(F)(F)F)nc1)c1cccc(Cl)c1Cl (stereo not drawn)")
8.43

Query string: For the record O=C(NCC(CC1CC1)c1ccc(C(F)(F)F)nc1)c1c(Cl)cccc1Cl (stereo not drawn) [2,6-dichloro-N-(3-cyclopropyl-2-(6-(trifluoromethyl)pyridin-] , what value of pIC50 is listed for UniProt:Q99572?
Result string: 9.15

Query string: For the record Cc1ncc(C2(CNC(=O)c3ccccc3Cl)CCC(F)(F)CC2)cn1 , what value of pIC50 is listed for UniProt:Q99572?
Result string: 6.92

###

# target_entity: P2X7 receptor (Homo sapiens (Human), UniProt Q99572)
# experimental_protocol: P2X7 FLIPR assay (BzATP-stimulated calcium fluorescence, antagonist IC50)
# Type: cell-based
# Experimental: This example illustrates representative assays for use in evaluating the test compounds for antagonist activity. Compounds of the present invention were tested in vitro for their ability to act as antagonists to the P2X7receptor. […] Cells were plated to cell density of approximately 15,000 cells/well in 384-well assay plates (50 μl/well) with 1.5% low serum media (DMEM, 1.5% FBS, 1% L-glut (2 mM), 10 mM HUES, 1% P/S). Cells were plated 24 hours prior to assay. […]
value_kind: pIC50
Please express pIC50 as -log10 of the molar concentration.

The cases that follow already have their pIC50 on record.
>>> quantitative_readout("Cc1ccccc1C(=O)NCC1(c2ccc(C(F)(F)F)nc2)CCC(F)(F)CC1")
8.59
>>> quantitative_readout("O=C(NCC(CC1CC1)c1cnc(C(F)F)nc1)c1cccc(Cl)c1Cl (single isomer, unassigned; (+)) [(+)2,3-dichloro-N-[3-cyclopropyl-2-[2-(difluoromethyl)pyrimi]")
7.64
>>> quantitative_readout("O=C(NCC(c1cnc(C(F)(F)F)nc1)C1CCOCC1)c1cccc(Cl)c1Cl (single isomer, unassigned; (-))")
7.96
>>> quantitative_readout("O=C(NCC(c1cnc(C(F)(F)F)nc1)C1CCC(F)(F)CC1)c1cccc(F)c1Cl (single isomer, unassigned; (-)) [(−)2-chloro-N-[2-(4,4-difluorocyclohexyl)-2-[2-(trifluoromet]")
7.36

Query string: Requested field: pIC50. Item: CS(=O)(=O)c1ccc(Cl)c(C(=O)NCC2(c3ccc(F)nc3)CCC(F)(F)CC2)c1
Result string: 8.06

Query string: Requested field: pIC50. Item: CC(C)(O)c1ccc(C(CNC(=O)c2cccc(Cl)c2Cl)CC2CC2)cn1 (single isomer, unassigned; (+)) [(+)2,3-dichloro-N-[3-cyclopropyl-2-[6-(1-hydroxy-1-methyl-et]
Result string: 6.13

Query string: Requested field: pIC50. Item: CS(=O)(=O)c1ccccc1C(=O)NCC1(c2ccc(C(F)(F)F)nc2)CCC(F)(F)CC1
Result string: 6.32
